# measurement-notes: Plasma cysteamine after delivery of cysteamine through a nasoenteric tube into stomach, small intestine or cecum
# Assay type: in vivo
# protocol-conditions: human, other: infused through nasoenteric tube into stomach, 10 mg/kg/dose of base, Mean plasma cysteamine Cmax, cystinosis subjects, delivery into stomach

- structure-as-smiles: "NCCS"
  Cmax [µM]: 35.5

---

# measurement-notes: Plasma cysteamine after delivery of cysteamine through a nasoenteric tube into stomach, small intestine or cecum
# Assay type: in vivo
# protocol-conditions: human, other: infused through nasoenteric tube into cecum, 10 mg/kg/dose of base, Mean plasma cysteamine Cmax, control subjects, delivery into cecum

- compound: "NCCS [cysteamine]"
  Cmax: "23.1 µM"

---

# measurement-notes: Plasma cysteamine after delivery of cysteamine through a nasoenteric tube into stomach, small intestine or cecum
# Assay type: in vivo
# protocol-conditions: human, other: infused through nasoenteric tube into small intestine, 10 mg/kg/dose of base, Mean plasma cysteamine Cmax, cystinosis subjects, delivery into small intestine
# Description: Adult control patients were recruited locally. […] None of the patients had undergone kidney transplantation. Baseline chemistry, Helicobacter pylori serologic study, complete blood count, and urinalysis were performed. […] After an overnight fast (except for water) blood samples were taken at baseline and at varying intervals after intraluminal delivery of cysteamine. […] Gastrin was measured in picograms/mL with the Diagnostic Products Corporation (Los Angeles, Calif.) gastrin radioimmunoassay-assay kit. […]

- structure-as-smiles: "NCCS"
  Cmax / µM: 55.8
